Reported FRET assay % inh, periplasmic extract values for a set of binders
target or system: T1, recombinant human ADAMTS5 (R&D Systems cat #2198-AD) (human, UniProt Q9UNA0 262-622, limits assumed)
T1 sequence: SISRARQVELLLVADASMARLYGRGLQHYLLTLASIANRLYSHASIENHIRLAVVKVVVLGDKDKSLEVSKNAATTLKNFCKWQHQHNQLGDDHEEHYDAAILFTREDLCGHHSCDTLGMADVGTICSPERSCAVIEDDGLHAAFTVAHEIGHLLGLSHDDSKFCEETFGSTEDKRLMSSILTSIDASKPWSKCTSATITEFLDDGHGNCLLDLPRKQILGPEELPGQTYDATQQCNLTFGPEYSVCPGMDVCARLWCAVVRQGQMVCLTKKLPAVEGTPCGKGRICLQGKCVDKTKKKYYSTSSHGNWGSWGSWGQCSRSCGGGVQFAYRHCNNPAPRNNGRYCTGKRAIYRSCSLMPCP
method description: cell-based or functional assay

As a guide, the following entries are already answered.
binder: Nanobody 3B03 (VHH, tagged as tested (anti-Flag detection, IMAC); also called 03B03) VHH: EVQLVESGGDLVQPGGSLRLSCAASGSDVVVNDMGWYRQAPGKQRELVADITTGGRTNYADSVKGRFTISRDNVKNTVYLQMNSLKPEDTAVYYCNAQVGDSDDDVWYAYWGQGTLVTVSS
test result: 93%

binder: Nanobody 2F03 (VHH, tagged as tested (anti-Flag detection, IMAC); also called 02F03; 2F3) VHH: EVQLVESGGGLVQAGGSLRLSCAASGRTVSSYAMGWFRLAPGKEREFVAGISRSAERTYYVDSLKGRFTISRDSAKNTVYLHMNRLKPEDTAVYYCAADLDPNRIFSREEYAYWGQGTLVTVSS
test result: 103%

binder: Nanobody 9D10 (VHH) VHH: EVQLVESGGGLVQAGGSLRLSCAASGRALSSSIMGWFRQAPGKEREFVAAITWSGGRAYYADVSDFEKGRFTISRDNGKNTVNLQMKGLKPEDTAVYYCAAALAIPVTMSPHEYPYWGQGTLVTVSS
test result: 111%

Supply reported FRET assay % inh, periplasmic extract belonging to this binder: Nanobody 9D03 (VHH, tagged as tested (anti-Flag detection, IMAC); also called 09D03; 9D3) VHH: EVQLVESGGGLVQSGGSLRLSCAASGSAVSVNAMAWYRQAPGKQRDFVAGISRSAGRTYYTDSVKDRFTIARDSAKNTVYLQMNRLKPEDTAVYYCAADLDPNRIFSRDEAAYWGQGTLVTVSS
110%
